List of pIC50 values.
Target: UniProt P00747
Sequence (P00747 581-810 limits assumed): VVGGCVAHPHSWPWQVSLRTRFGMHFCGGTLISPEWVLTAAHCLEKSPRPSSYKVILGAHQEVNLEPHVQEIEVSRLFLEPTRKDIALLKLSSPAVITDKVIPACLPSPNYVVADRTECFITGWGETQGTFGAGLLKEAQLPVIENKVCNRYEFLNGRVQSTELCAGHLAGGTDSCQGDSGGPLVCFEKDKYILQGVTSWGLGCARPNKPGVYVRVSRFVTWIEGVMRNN
Sequence (P00747 98-580 partner limits assumed): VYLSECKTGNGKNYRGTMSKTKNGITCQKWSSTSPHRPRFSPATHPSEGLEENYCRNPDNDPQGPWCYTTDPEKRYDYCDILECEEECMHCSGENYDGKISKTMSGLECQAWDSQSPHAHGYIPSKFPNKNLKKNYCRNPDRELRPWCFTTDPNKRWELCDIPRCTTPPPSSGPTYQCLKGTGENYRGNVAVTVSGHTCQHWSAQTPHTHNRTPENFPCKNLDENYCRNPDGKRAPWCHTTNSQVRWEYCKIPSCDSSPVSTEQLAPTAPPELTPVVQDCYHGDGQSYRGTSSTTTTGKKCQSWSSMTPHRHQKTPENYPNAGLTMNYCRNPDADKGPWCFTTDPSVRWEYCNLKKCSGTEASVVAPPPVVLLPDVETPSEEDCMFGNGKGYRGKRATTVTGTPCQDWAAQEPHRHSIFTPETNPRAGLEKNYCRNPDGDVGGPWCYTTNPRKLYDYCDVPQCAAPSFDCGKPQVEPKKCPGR
pIC50: −log10 of the molar value.

>  <Compound>
CCOc1ccccc1CC1C(=O)N(C(=O)NC(c2ccccc2)c2ccccc2)C1Oc1ccc(C(=O)O)cc1 (centres unmarked) [Compound I-144]

>  <pIC50>
< 5.00

$$$$
>  <Compound>
CCOc1ccccc1C[C@@H]1C(=O)N(C(=O)NC(c2ccc(C)cc2)c2ccc(C)cc2)[C@H]1Oc1ccc(C(=O)O)cc1 [Compound I-158]

>  <pIC50>
< 4.00

$$$$

---

Target sequence: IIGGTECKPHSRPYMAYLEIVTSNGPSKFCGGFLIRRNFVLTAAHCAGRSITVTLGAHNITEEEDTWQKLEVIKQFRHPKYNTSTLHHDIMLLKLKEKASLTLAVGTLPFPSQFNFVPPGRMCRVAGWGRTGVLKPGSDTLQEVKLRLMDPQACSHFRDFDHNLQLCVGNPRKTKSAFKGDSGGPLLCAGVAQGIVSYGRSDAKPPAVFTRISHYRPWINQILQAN
List of IC50 values.

>  <Compound>
C=CCNC(=O)c1ccc(O[C@H]2[C@H](Cc3ccccc3)C(=O)N2C(=O)N[C@H](C)c2ccccc2)cc1 [Compound I-44]

>  <Result units>
nM

>  <IC50>
3.8

$$$$
>  <Compound>
C[C@@H](NC(=O)N1C(=O)[C@@H](Cc2ccccc2)[C@H]1Sc1ccccc1)c1ccccc1 [Compound I-85]

>  <Result units>
nM

>  <IC50>
2.4

$$$$
>  <Compound>
C[C@@H](NC(=O)N1C(=O)[C@@H](Cc2ccccc2)[C@H]1Oc1ccc(C(=O)N2CCN(Cc3ccc4c(c3)OCO4)CC2)cc1)c1ccccc1 [Compound I-76]

>  <Result units>
nM

>  <IC50>
2.4

$$$$
